Source: ChEMBL document CHEMBL3044538

# Test system: L1210
# protocol: Antitumor activity against Mus musculus (mouse) L1210 cells xenografted in rat
# Format: functional
Measured log(1/MIC) values are reported for all entries that follow.

{"molecule": "O=C1C(NCCO)=C(N2CC2)C(=O)C(NCCO)=C1N1CC1", "log(1/MIC)": 3.39}

Moving on to the next molecule.
Bench note, L1210: COC1=C(N2CC2C)C(=O)C=C(N2CC2C)C1=O (configuration not stated) , log(1/MIC) reads 1.47

====

Measured log(1/LD50) values are reported for all entries that follow.
# Species on record: Rattus norvegicus
# protocol: Toxicity in Rattus norvegicus (rat)
# Format: organism-based
# condition.parameters: in vivo

{"compound": "CCOC(=O)NC1=C(N2CC2C)C(=O)C(NC(=O)OCC)=C(N2CC2C)C1=O (stereo not drawn)", "log(1/LD50)": 0.69}

Recorded log(1/LD50) (compound O=C1C=C(N2CC2)C(=O)C(N2CC2)=C1N1CC1 ): 2.66

====

# Tested on: L1210
# protocol: Antitumor activity against Mus musculus (mouse) L1210 cells xenografted in rat
# Assay type: functional
quantity.name: log(1/MIC)
Please give only the number in your answer, with no unit.

Reference set, count: 4
{"molecule": "CC1=C(N2C(C)C2C)C(=O)C(Br)=C(N2C(C)C2C)C1=O (stereo not given)", "reported.result": 0.69}
{"molecule": "CC1CN1C1=C(Cl)C(=O)C(N2CC2C)=C(Cl)C1=O (stereo not given)", "reported.result": 1.16}
{"molecule": "CNC1=C(N2CC2C)C(=O)C(NC)=C(N2CC2C)C1=O (stereo not given)", "reported.result": 2.19}
{"molecule": "CNC1=C(N2CC2)C(=O)C(NC)=C(N2CC2)C1=O", "reported.result": 2.49}

Moving on to the next molecule.
Recorded log(1/MIC) (molecule NC(=O)OCCC1=C(N2CC2)C(=O)C(Br)=C(N2CC2)C1=O ): 2

====

# Species on record: Rattus norvegicus
# protocol: Toxicity in Rattus norvegicus (rat)
# Format: organism-based
# condition.parameters: in vivo
quantity.name: log(1/LD50)
Please give only the number in your answer, with no unit.

{"compound": "CC1CN1C1=C(F)C(=O)C(N2CC2C)=C(N2CC2C)C1=O (stereo unspecified)", "log(1/LD50)": 1.45}
{"compound": "CC1=C(N2CC2)C(=O)C(Br)=C(N2CC2)C1=O", "log(1/LD50)": 1.44}
{"compound": "CC1CN1C1=CC(=O)C(N2CC2C)=C(F)C1=O (stereo unspecified)", "log(1/LD50)": 1.5}
{"compound": "NC(=O)OCCC1=C(N2CC2)C(=O)C(Br)=C(N2CC2)C1=O", "log(1/LD50)": 1.05}
{"compound": "CC1CN1C1=CC(=O)C(N2CC2C)=CC1=O (stereo unspecified)", "log(1/LD50)": 1.16}
{"compound": "COC(COC(N)=O)C1=C(N2CC2)C(=O)C(C)=C(N2CC2)C1=O (stereo unspecified) [CARBOQUONE]", "log(1/LD50)": 1.73}
{"compound": "CC1=C(N2CC2)C(=O)C(CCOC(N)=O)=C(N2CC2)C1=O", "log(1/LD50)": 1.99}
{"compound": "O=C1C=C(N2CC2)C(=O)C=C1N1CC1", "log(1/LD50)": 1.8}

Recorded log(1/LD50) (compound CC1=C(N2CC2)C(=O)C(CCO)=C(N2CC2)C1=O ): 1.39

Recorded log(1/LD50) (compound CCC1=C(N2CC2)C(=O)C(C)=C(N2CC2)C1=O ): 1.46

Recorded log(1/LD50) (compound O=C1C(F)=C(N2CC2)C(=O)C(N2CC2)=C1N1CC1 ): 1.62
